Please go through the items and note down their GI50.
system: MDA-MB-231; test: NCI tumour cell line growth inhibition, 48 h
Activity calls are given as the source filed them. Rule as the data show it: active = GI50 up to about 1.1 µM and inactive = higher.

Input: Data request, read-out GI50, for CC1=NN(C(=O)c2ccncc2)C(=O)C1/N=N/c1ccc2ccccc2c1 (stereo not given)
Output: 20.8 µM (inactive)

Input: Dear colleague, I am looking for the recorded GI50 of the following compound: COC(=O)c1c(C)cccc1C1CN=NC12Cc1ccc(C)cc1C2=O (stereo not given)
Output: 47.1 µM (inactive)

Input: Quick one: GI50 for `N=C(N)N/N=C/c1c(-c2ccc([N+](=O)[O-])cc2)nc2sc(Cl)cn12` ?
Output: 0.262 µM (active)

Input: State the recorded GI50 for this entry: `O=C1C(Cl)=C(N2CCC[C@H]2CO)C(=O)c2c(O)ccc(O)c21`
Output: 2.64 µM (inactive)

Input: Which measured GI50 value corresponds to `C=C(C(=O)OC)c1cc2ccccc2n1S(=O)(=O)c1ccccc1` ?
Output: 1.98 µM (inactive)

Input: Using the record for `CN(NC(=O)CCCl)C1=NCCCCN1` , report its GI50.
Output: > 100 µM (inactive)

Input: Endpoint output: GI50 of COc1cc2c(cc1OC)OC(c1c(OC)ccc(OC)c1O)CC2 (stereo not given) . Value?
Output: > 100 µM (inactive)

Input: So what's the measured GI50 for this one? O=C(c1ccccc1)C1C(C(=O)c2ccccc2)N1Cc1ccccc1 (stereo not given)
Output: 26.1 µM (inactive)

Input: Please look up its GI50: `[O-][n+]1ccccc1Sc1nc(Sc2cccc[n+]2[O-])nc(Sc2cccc[n+]2[O-])n1`
Output: 1.38 µM (inactive)

Input: # query: GI50 of entry `O=C(O)c1cc2ccccc2c(/N=N/c2ccc(S(=O)(=O)Nc3nccs3)cc2)c1O`
Output: > 100 µM (inactive)

* * *

tested on: COLO 205; experiment: NCI tumour cell line growth inhibition, 48 h
Active and inactive are the calls of the source. Cut-off read from the data, not from the text of the source: active = GI50 up to about 1.1 µM and inactive = higher. Peptide text beside a SMILES is read from it. * marks the point of attachment. Boc = CC(C)(C)OC(=O)*
readout: GI50

Input: Please look up its GI50: CSCCC(NC(=O)C(CC(C)C)NC(=O)CNC(=O)OC(C)(C)C)C(=O)N(C)C (stereo not drawn) (Boc-Gly-Leu-Met-NMe2; configuration not given here)
Output: > 100 µM (inactive)

Input: # GI50 lookup, item O=C1C2Cc3ccccc3CN2C(=O)N1CN1CCCCC1 (centres undefined)
Output: > 100 µM (inactive)

Input: Reported GI50 for `Cc1ccc(S(=O)(=O)c2c3nc4ccccc4nc3n3c2[nH]c2ccccc23)cc1` : what is it?
Output: > 100 µM (inactive)

Input: Quick check: GI50 of `COc1ccc2c(=O)c3ccoc3n(CC=C(C)C)c2c1` ?
Output: > 85.3 µM (inactive)

Input: Requested field: GI50. Item: `COc1cc2cccc(/N=C/c3c(Br)ccc(OC)c3OC(C)C)c2cc1OC`
Output: > 100 µM (inactive)

Input: Data request, read-out GI50, for NC[C@H]1Nc2ccccc2[C@@H](O)C1O (some centres undefined)
Output: > 100 µM (inactive)

Input: What does the record list as GI50 for `CC1=NN(c2nc(N)nc(COCc3nc(N)nc(N4N=C(C)CC4(C)C)n3)n2)C(C)(C)C1` ?
Output: > 100 µM (inactive)

Input: Give the measured GI50 of CC(C)N(C(C)C)S(=O)(=O)C[C@]12CC[C@H](CC13OCC(CS(=O)(=O)c1ccccc1)O3)C2(C)C (some centres undefined) .
Output: 17.6 µM (inactive)

Input: Query (compound): `C(=N\NC1=NCCCN1)/c1ccc(-c2cn3cc(/C=N/NC4=NCCCN4)ccc3n2)cc1` ; field requested: GI50
Output: > 100 µM (inactive)
